testedTarget: NK-2 receptors (Cavia porcellus)
Construct: the NK-2 receptors present in the gall-bladder preparations; from tissue; host or cells: Pirbright-White guinea pig: isolated gall-bladder (A2); anaesthetised whole animal (A3)
Sequence (Q64077 whole entry): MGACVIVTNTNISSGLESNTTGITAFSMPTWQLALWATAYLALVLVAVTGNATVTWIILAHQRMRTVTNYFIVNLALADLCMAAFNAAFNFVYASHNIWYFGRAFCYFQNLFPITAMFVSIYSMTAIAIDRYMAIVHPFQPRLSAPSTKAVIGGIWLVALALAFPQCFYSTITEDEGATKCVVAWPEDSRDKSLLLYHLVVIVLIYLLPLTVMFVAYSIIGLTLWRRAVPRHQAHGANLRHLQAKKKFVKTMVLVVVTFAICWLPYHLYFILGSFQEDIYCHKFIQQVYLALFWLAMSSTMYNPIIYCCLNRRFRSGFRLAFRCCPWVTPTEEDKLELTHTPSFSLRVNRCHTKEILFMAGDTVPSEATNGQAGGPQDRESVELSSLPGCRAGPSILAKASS
assayName: NK-2-receptor-antagonistic effectiveness in vivo in anaesthetised guinea pigs (NKA test stimulus)
Parameters: species or system guinea pig
runParameters: guinea pig, po; from AUC over 180 min after administration; colonic pressure; read-out: ED50 Colonic pressure, p.o. AUC over 180 min.
observable: ED50 (µmol/kg)

compound: CC(=O)OC[C@@H](OC(C)=O)[C@H](OC(C)=O)[C@@H](OC(C)=O)C(c1ccsc1)N1CCN(CC[C@H](CN(C)C(=O)c2ccccc2)c2ccc(Cl)c(Cl)c2)CC1 (some centres unmarked) [Example 14]
ED50 (µmol/kg): 3.2

a: CN(C[C@@H](CCN1CCN(C(c2ccsc2)[C@H](O)[C@@H](O)[C@H](O)CO)CC1)c1ccc(Cl)c(Cl)c1)C(=O)c1ccccc1 (some centres unmarked) [Example 1]
b: CN(CC(CCN1CCN(C(c2ccco2)[C@H](O)[C@@H](O)[C@H](O)CO)CC1)c1ccc(Cl)c(Cl)c1)C(=O)c1ccccc1 (mixture of isomers) [Example 13]
Enquiry: Pick one: a or b . Which one has the lower reported ED50? In your reply, give the label of the chosen option.
Return: a

These entries and their values trace back to patent US6770649B2.
